# Tested on: NOMO1
# test_summary: cell viability relative to DMSO control; higher = less cytotoxic
# assay_context: RPMI 5 mM glucose + 10% dialyzed FBS; 48 h; 0.569 µM
A collection of molecules and their measured cell viability
assay_readout: cell viability (%)

[
  {
    "compound": "O=C(O)[C@@H](c1ccc(OCc2ccc3ccccc3n2)cc1)C1CCCC1",
    "assay_readout": "cell viability",
    "result_value": 103
  },
  {
    "compound": "COC1=CC(=CC=C1)C2=CC=C(NC(=O)/C3=C(/CCC3)C(O)=O)C(=C2)F",
    "assay_readout": "cell viability",
    "result_value": 113
  },
  {
    "compound": "CN[C@H]1[C@H](O[C@@H]2[C@H](O[C@@H]3[C@@H](O)[C@@H](O)[C@@H](NC(=N)N)[C@@H](O)[C@H]3NC(=N)N)O[C@H](C)[C@@]2(O)C=O)O[C@@H](CO)[C@@H](O)[C@H]1O",
    "assay_readout": "cell viability",
    "result_value": 102
  },
  {
    "compound": "C/C(=C\\c1csc(C)n1)[C@@H]1C[C@@H]2O[C@@H]2CCC[C@H](C)[C@H](O)[C@@H](C)C(=O)C(C)(C)[C@@H](O)CC(=O)O1",
    "assay_readout": "cell viability",
    "result_value": 21.7
  },
  {
    "compound": "O=C(C1CC1)N1CC[C@@H](Cn2c(-c3ccc(-c4ccc5occc5c4)cc3)nc3cnccc32)C1",
    "assay_readout": "cell viability",
    "result_value": 119
  },
  {
    "compound": "COc1cc(Nc2ncc(F)c(Nc3ccc4c(n3)N(COP(=O)(O)O)C(=O)C(C)(C)O4)n2)cc(OC)c1OC",
    "assay_readout": "cell viability",
    "result_value": 88.5
  }
]

###

# System: P12-Ichikawa
# test_summary: cell viability relative to DMSO control; higher = less cytotoxic
# assay_context: RPMI 5 mM glucose + 10% FBS; 48 h; 0.0211 µM
I'd appreciate it if you marked entries YES when cell viability is lower than 90% and NO when it is not.

[
  {
    "molecule": "CC(=O)OCC(=O)[C@@]12OC(C)(C)O[C@@H]1C[C@H]3[C@@H]4C[C@H](F)C/5=C/C(=O)/C=C\\[C@]5(C)[C@@]4(F)[C@@H](O)C[C@]23C",
    "discrete_label": "NO"
  },
  {
    "molecule": "C/C(=C\\c1csc(C)n1)[C@@H]1C[C@@H]2O[C@]2(C)CCC[C@H](C)[C@H](O)[C@@H](C)C(=O)C(C)(C)[C@@H](O)CC(=O)O1",
    "discrete_label": "YES"
  },
  {
    "molecule": "CC(=O)Oc1cc2c(s1)CCN(C(C(=O)C1CC1)c1ccccc1F)C2.Cl (stereo unspecified)",
    "discrete_label": "NO"
  }
]

###

# System: P12-Ichikawa
# test_summary: cell viability relative to DMSO control; higher = less cytotoxic
# assay_context: RPMI 5 mM glucose + 10% dialyzed FBS; 48 h; 0.00702 µM

[
  {
    "compound": "CCCCCCCCOc1ccccc1C(=O)Nc1ccc(C(=O)OCC[N+](C)(CC)CC)cc1",
    "tgt": "P12-Ichikawa",
    "cell viability (%)": 88.2
  },
  {
    "compound": "CC[C@H](NC(C)C)[C@H](O)c1ccc(O)c2[nH]c(=O)ccc12",
    "tgt": "P12-Ichikawa",
    "cell viability (%)": 97.6
  },
  {
    "compound": "O=C(C[C@@H]1C/C=C\\CCC(=O)O[C@H](c2ccccc2)CNC1=O)NCc1ccc(Cl)cc1",
    "tgt": "P12-Ichikawa",
    "cell viability (%)": 79.3
  },
  {
    "compound": "CC(C[N+](C)(C)C)OC(N)=O (stereo not given)",
    "tgt": "P12-Ichikawa",
    "cell viability (%)": 122
  },
  {
    "compound": "O=C(O)c1ccc(-c2c[nH]c3ncc(-c4ccccc4)cc23)cc1C1CCCC1",
    "tgt": "P12-Ichikawa",
    "cell viability (%)": 126
  },
  {
    "compound": "Cc1cccc(N(C)C(=S)Oc2ccc3ccccc3c2)c1",
    "tgt": "P12-Ichikawa",
    "cell viability (%)": 104
  },
  {
    "compound": "CCCNCC(O)COc1ccccc1C(=O)CCc1ccccc1 (stereo not given)",
    "tgt": "P12-Ichikawa",
    "cell viability (%)": 98.1
  },
  {
    "compound": "FC(F)(F)C1=CC=C2C(SCCCCCO\\C3=C\\O\\C(CN4CCOCC4)=C/C3=O)=CC=NC2=C1",
    "tgt": "P12-Ichikawa",
    "cell viability (%)": 113
  },
  {
    "compound": "O=C(O)[C@@H](c1ccc(OCc2ccc3ccccc3n2)cc1)C1CCCC1",
    "tgt": "P12-Ichikawa",
    "cell viability (%)": 112
  },
  {
    "compound": "CNC(=O)c1ccc(N2C(=S)N(c3ccc(C#N)c(C(F)(F)F)c3)C(=O)C2(C)C)cc1F",
    "tgt": "P12-Ichikawa",
    "cell viability (%)": 80.4
  },
  {
    "compound": "CN(CCOc1ccc(NS(C)(=O)=O)cc1)CCc1ccc(NS(C)(=O)=O)cc1",
    "tgt": "P12-Ichikawa",
    "cell viability (%)": 114
  },
  {
    "compound": "CC(=O)OCC(=O)[C@@]12OC(C)(C)O[C@@H]1C[C@H]3[C@@H]4C[C@H](F)C/5=C/C(=O)/C=C\\[C@]5(C)[C@@]4(F)[C@@H](O)C[C@]23C",
    "tgt": "P12-Ichikawa",
    "cell viability (%)": 114
  },
  {
    "compound": "CO[C@@H]1[C@@H](OC(N)=O)[C@@H](O)[C@H](OC2=CC=C3\\C(=C(NC(=O)C4=CC=C([O-])C(=C4)CC=C(C)C)/C(=O)OC3=C2C)O)OC1(C)C",
    "tgt": "P12-Ichikawa",
    "cell viability (%)": 109
  },
  {
    "compound": "FC1=CC=C(CN2\\C=C/C=C(/C(=O)N[C@@H](COC3=CC4=C(NC(=O)N4)C=C3)C5=CC=CC=C5)C2=O)C=C1F",
    "tgt": "P12-Ichikawa",
    "cell viability (%)": 90.5
  },
  {
    "compound": "CN(C)CC[C@H](CSc1ccccc1)Nc1ccc([S+](=O)([O-])NC(=O)c2ccc(N3CCN(Cc4ccccc4-c4ccc(Cl)cc4)CC3)cc2)cc1[N+](=O)[O-]",
    "tgt": "P12-Ichikawa",
    "cell viability (%)": 124
  }
]

###

# System: NOMO1
# test_summary: AUC of viability dose-response curve (% viability x log10 dose units); higher = less sensitive
# assay_context: RPMI 5 mM glucose + 10% FBS; 48 h

[
  {
    "compound": "CCCCCCCCOc1ccccc1C(=O)Nc1ccc(C(=O)OCC[N+](C)(CC)CC)cc1",
    "AUC of viability dose-response curve": 401
  },
  {
    "compound": "CNNCc1ccc(C(=O)NC(C)C)cc1",
    "AUC of viability dose-response curve": 468
  },
  {
    "compound": "OC(CCN1CCCCC1)(C2CC\\3CC2\\C=C3)C4=CC=CC=C4 (stereo not given)",
    "AUC of viability dose-response curve": 475
  },
  {
    "compound": "COc1cc(NC(=O)c2ccc(-c3ccc(Cl)cc3)o2)cc(OC)c1",
    "AUC of viability dose-response curve": 432
  },
  {
    "compound": "COC(=O)Nc1ccc(-c2nc(N3CCOCC3)c3cnn(C4CCN(Cc5cccnc5)CC4)c3n2)cc1",
    "AUC of viability dose-response curve": 361
  }
]

###

Items are presented alongside their recorded AUC of viability dose-response curve.
# Tested on: P12-Ichikawa
# test_summary: AUC of viability dose-response curve (% viability x log10 dose units); higher = less sensitive
# assay_context: RPMI 5 mM glucose + 10% FBS; 48 h
assay_readout: AUC of viability dose-response curve

[
  {
    "compound": "O=C(/C=C/C=C/c1ccc2c(c1)OCO2)N1CCCCC1",
    "result_value": 463
  },
  {
    "compound": "NC(=O)c1ccc(-c2nc(-c3ccc4c(c3)OCO4)c(-c3ccccn3)[nH]2)cc1",
    "result_value": 429
  },
  {
    "compound": "CN(CCOc1ccc(NS(C)(=O)=O)cc1)CCc1ccc(NS(C)(=O)=O)cc1",
    "result_value": 465
  },
  {
    "compound": "Cc1cc(SCc2sc(-c3ccc(C(F)(F)F)cc3)nc2C)ccc1OCC(=O)O",
    "result_value": 459
  },
  {
    "compound": "C[N]1N=CC2=C1C=C(C(=C2)OC3=CC=C(NC(=O)\\C4=C\\C=C(\\C)N(C4=O)C5=CC=C(F)C=C5)C=C3F)C6=C[NH]N=C6",
    "result_value": 397
  },
  {
    "compound": "O=C(O)CSCC(=O)NC1CCSC1=O (stereo not drawn)",
    "result_value": 469
  },
  {
    "compound": "O=C(C1CC1)N1CC[C@@H](Cn2c(-c3ccc(-c4ccc5occc5c4)cc3)nc3cnccc32)C1",
    "result_value": 470
  },
  {
    "compound": "CCN1\\C=C(C(O)=O)/C(=O)C2=C1C=C(N3CCN(C)CC3)C(=C2)F",
    "result_value": 437
  },
  {
    "compound": "C/C(=C\\c1csc(C)n1)[C@@H]1C[C@@H]2O[C@]2(C)CCC[C@H](C)[C@H](O)[C@@H](C)C(=O)C(C)(C)[C@@H](O)CC(=O)O1",
    "result_value": 120
  },
  {
    "compound": "CCCc1nc2c(C)cc(-c3nc4ccccc4n3C)cc2n1Cc1ccc(-c2ccccc2C(=O)O)cc1",
    "result_value": 382
  },
  {
    "compound": "C[C@H]1C[C@H]2[C@@H]3CCC4=CC(=O)C=C[C@]4(C)[C@H]3C(=O)C[C@]2(C)[C@@]1(O)C(=O)CO",
    "result_value": 454
  },
  {
    "compound": "CN(c1nccc(=O)[nH]1)C1CCN(c2nc3ccccc3n2Cc2ccc(F)cc2)CC1",
    "result_value": 460
  },
  {
    "compound": "C=CCc1cc(OC)c(O)c(C(=O)NCCO)c1",
    "result_value": 460
  }
]
